# Assayed System: G protein-coupled receptor kinase 5 (Homo sapiens, UniProt P34947)
# Sequence (P34947 whole entry): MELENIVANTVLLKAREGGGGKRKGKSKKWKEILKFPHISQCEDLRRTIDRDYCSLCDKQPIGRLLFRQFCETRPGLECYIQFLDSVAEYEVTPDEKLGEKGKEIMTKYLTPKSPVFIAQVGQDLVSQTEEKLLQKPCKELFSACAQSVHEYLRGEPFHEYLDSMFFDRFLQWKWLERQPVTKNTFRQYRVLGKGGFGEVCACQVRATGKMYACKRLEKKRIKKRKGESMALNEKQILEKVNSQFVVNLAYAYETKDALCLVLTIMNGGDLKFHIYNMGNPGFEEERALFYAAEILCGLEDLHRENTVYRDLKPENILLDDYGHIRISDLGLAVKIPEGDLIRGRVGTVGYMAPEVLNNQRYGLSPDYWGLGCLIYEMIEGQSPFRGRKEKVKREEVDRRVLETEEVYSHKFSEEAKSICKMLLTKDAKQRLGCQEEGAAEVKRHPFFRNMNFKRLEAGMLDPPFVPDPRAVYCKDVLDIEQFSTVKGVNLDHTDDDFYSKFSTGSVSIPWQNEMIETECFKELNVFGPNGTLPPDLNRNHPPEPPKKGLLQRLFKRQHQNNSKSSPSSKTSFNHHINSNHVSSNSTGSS
# Method Description: Selectivity interaction (TR-FRET binding assay) EUB0000644a GRK5
Value Kind: pIC50
Lab note — pIC50 values are minus log10 of concentrations in M.

// recorded pIC50 for CC[C@@H]1CN(C(=O)NCC(F)(F)F)C[C@@H]1c1cnc2cnc3[nH]ccc3n12 : 5.10

---

# Method Description: Selectivity interaction (Kinase panel (cellular selectivity, Bright-Glo proliferation assay in BaF3 Cell line, Promega)) EUB0000678a ROS1
Value Kind: IC50 (µM)
API: value field is a number in µM; no unit string.

// recorded IC50 for CCN1CCN(c2ccc(Nc3cc(N(C)C(=O)Nc4c(Cl)c(OC)cc(OC)c4Cl)ncn3)cc2)CC1 [INFIGRATINIB] : 3.26

---

# Assayed System: PXR (NR1I2) (Homo sapiens)
# Sequence (O75469 whole entry): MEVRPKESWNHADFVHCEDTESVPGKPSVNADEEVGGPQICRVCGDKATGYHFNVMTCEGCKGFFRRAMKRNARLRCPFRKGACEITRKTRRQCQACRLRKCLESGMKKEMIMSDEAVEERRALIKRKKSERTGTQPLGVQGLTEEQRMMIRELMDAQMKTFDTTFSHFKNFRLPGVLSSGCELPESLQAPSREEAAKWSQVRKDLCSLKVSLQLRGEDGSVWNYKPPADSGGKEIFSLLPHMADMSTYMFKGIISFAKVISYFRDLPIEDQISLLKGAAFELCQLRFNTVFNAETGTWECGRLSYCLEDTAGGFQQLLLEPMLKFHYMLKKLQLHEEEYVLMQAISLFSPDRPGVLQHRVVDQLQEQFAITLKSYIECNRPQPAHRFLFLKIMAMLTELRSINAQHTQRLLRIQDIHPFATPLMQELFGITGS
# Method Description: Selectivity interaction (Panel of kinases, GPCRs, ion channels and transporters (enzymatic assay)) EUB0000266bCl NR1I2
Value Kind: XC50

// recorded XC50 for CCn1c(-c2nc3cc(C(=O)N4CCCC(N)C4)ccc3n2C)cc2ccccc21 (stereo unspecified) : > 50.1 µM

---

# Method Description: Selectivity interaction (Kinase panel (cellular selectivity, Bright-Glo proliferation assay in BaF3 Cell line, Promega)) EUB0000678a TYK2
Value Kind: IC50 (µM)
API: value field is a number in µM; no unit string.

// recorded IC50 for CCN1CCN(c2ccc(Nc3cc(N(C)C(=O)Nc4c(Cl)c(OC)cc(OC)c4Cl)ncn3)cc2)CC1 [INFIGRATINIB] : 3.3

---

# Assayed System: Protein kinase C theta type (Homo sapiens, UniProt Q04759)
# Sequence (Q04759 whole entry): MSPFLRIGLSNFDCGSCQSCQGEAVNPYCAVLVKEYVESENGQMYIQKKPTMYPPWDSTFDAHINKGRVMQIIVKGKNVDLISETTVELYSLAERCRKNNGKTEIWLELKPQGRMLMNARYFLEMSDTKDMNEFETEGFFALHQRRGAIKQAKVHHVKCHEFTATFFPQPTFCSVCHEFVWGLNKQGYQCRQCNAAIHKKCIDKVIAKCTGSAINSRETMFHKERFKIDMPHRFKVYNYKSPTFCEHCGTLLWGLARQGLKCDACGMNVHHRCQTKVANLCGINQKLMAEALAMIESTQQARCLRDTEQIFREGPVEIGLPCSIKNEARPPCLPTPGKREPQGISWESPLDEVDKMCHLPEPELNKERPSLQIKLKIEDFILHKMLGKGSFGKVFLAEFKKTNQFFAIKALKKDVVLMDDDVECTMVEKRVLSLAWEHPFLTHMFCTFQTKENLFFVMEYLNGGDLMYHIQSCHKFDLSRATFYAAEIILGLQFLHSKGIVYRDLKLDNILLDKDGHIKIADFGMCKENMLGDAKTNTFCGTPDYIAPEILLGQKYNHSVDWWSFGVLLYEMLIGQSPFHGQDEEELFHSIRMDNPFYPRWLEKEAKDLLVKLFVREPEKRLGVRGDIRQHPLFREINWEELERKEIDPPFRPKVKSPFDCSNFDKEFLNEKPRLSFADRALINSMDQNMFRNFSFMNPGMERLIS
# Method Description: Selectivity interaction (Kinase panel (33PanQinase(R) Activity Assay)) EUB0000877a PRKCQ
Value Kind: IC50

// recorded IC50 for CCC(=O)N1CC[C@H](Nc2ncnc3c2CN(c2cnc(OC)c(C(F)(F)F)c2)CC3)C1 : > 10 µM

---

# Assayed System: Cyclin-dependent kinase 7 (Homo sapiens)
# Method Description: Selectivity interaction (KinomeScan (DiscoverX, competition-binding assay)) EUB0001547a CDK7
Value Kind: Kd (µM)
API: value field is a number in µM; no unit string.

// recorded Kd for N[C@@H]1CCCN(c2c(/C=C3\SC(=O)NC3=O)cccc2-c2ccccc2)C1 : 0.038

---

# Assayed System: Aurora kinase A (Homo sapiens)
# Method Description: Selectivity interaction (Radiometric kinase assay (using 10 uM ATP)) EUB0000601a STK6
Value Kind: IC50

// recorded IC50 for CCc1cc(Nc2nccc(-c3c(-c4ccc(OC)c(C(=O)Nc5c(F)cccc5F)c4)nc4ccccn34)n2)c(OC)cc1N1CCC(N2CCN(S(C)(=O)=O)CC2)CC1 : > 1500 nM

---

# Method Description: Selectivity interaction (Kinase panel (cellular selectivity, Bright-Glo proliferation assay in BaF3 Cell line, Promega)) EUB0000678a SYK
Value Kind: pIC50
Lab note — pIC50 values are minus log10 of concentrations in M.

// recorded pIC50 for CCN1CCN(c2ccc(Nc3cc(N(C)C(=O)Nc4c(Cl)c(OC)cc(OC)c4Cl)ncn3)cc2)CC1 [INFIGRATINIB] : 5.27

---

# Assayed System: Mitogen-activated protein kinase 8 (Homo sapiens, UniProt P45983)
# Sequence (P45983 whole entry): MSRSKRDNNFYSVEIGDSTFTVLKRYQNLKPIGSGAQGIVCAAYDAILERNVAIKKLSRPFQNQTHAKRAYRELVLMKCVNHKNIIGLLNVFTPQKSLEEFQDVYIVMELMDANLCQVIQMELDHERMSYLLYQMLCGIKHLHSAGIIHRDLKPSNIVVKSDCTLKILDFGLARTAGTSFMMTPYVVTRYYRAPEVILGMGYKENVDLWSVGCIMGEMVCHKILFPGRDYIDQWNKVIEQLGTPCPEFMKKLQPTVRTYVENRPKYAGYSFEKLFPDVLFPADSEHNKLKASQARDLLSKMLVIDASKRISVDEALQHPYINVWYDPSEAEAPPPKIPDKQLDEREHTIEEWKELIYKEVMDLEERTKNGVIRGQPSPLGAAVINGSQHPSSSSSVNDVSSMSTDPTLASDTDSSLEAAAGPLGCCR
# Method Description: Selectivity interaction (Kinase panel (Invitrogen, enzymatic assay)) EUB0000623aCl MAPK8
pIC50: −log10 of the molar value.
Value Kind: pIC50

// recorded pIC50 for CC(C)(C)c1ccc(C(=O)Nc2cn3cc(-n4ccnc4)ccc3n2)cc1 : < 5.00

---

# Assayed System: NUAK family SNF1-like kinase 1 (Homo sapiens, UniProt O60285)
# Sequence (O60285 whole entry): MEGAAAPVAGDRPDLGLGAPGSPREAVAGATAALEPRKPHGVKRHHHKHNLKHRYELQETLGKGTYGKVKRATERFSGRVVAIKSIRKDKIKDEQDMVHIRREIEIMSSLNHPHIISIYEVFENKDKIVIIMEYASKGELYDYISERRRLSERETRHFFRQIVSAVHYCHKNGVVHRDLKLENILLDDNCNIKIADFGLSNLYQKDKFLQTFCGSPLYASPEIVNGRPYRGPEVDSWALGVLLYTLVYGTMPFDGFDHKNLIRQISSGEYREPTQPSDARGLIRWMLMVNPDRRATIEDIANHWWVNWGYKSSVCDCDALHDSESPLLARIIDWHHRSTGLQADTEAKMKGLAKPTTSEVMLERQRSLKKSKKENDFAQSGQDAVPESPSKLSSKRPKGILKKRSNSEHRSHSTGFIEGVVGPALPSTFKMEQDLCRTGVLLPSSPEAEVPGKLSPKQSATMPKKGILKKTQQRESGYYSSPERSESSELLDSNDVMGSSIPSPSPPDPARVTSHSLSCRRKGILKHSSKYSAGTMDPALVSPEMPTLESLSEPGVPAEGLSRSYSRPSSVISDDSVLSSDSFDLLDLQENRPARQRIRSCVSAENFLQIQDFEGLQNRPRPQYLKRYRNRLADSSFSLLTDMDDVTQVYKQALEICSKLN
# Method Description: Selectivity interaction (Enzymatic assay) EUB0001199aCl NUAK1
Value Kind: pIC50
Lab note — pIC50 values are minus log10 of concentrations in M.

// recorded pIC50 for CN1Cc2nccc(-c3cn(C)nc3-c3ccc(F)cc3)c2C1=O : 4.99

---

# Assayed System: Cyclin-dependent kinase 13 (Homo sapiens)
# Method Description: Selectivity interaction (Western blot assay (pull-down blockage of CDK7-cyclin H using lysates from HAP1 cells)) EUB0001635a CDK13
# Format: cell-based
Value Kind: IC50

// recorded IC50 for C=CC(=O)Nc1ccc(C(=O)Nc2n[nH]c3c2CN(C(=O)N[C@H](CN(C)C)c2ccccc2)C3(C)C)cc1 : > 1000 nM

---

# Assayed System: cAMP-dependent protein kinase catalytic subunit alpha (Homo sapiens, UniProt P17612)
# Method Description: Selectivity interaction (Kinase panel (33PanQinase(R) Activity Assay)) EUB0000877a PRKACA
pIC50: −log10 of the molar value.
Value Kind: pIC50

// recorded pIC50 for CCC(=O)N1CC[C@H](Nc2ncnc3c2CN(c2cnc(OC)c(C(F)(F)F)c2)CC3)C1 : < 5.00

---

# Assayed System: Tyrosine-protein kinase Lck (Homo sapiens)
# Method Description: Selectivity interaction (Radiometric kinase assay (using 10 uM ATP)) EUB0000601a LCK
pIC50: −log10 of the molar value.
Value Kind: pIC50

Let me check: CCc1cc(Nc2nccc(-c3c(-c4ccc(OC)c(C(=O)Nc5c(F)cccc5F)c4)nc4ccccn34)n2)c(OC)cc1N1CCC(N2CCN(S(C)(=O)=O)CC2)CC1 , system Tyrosine-protein kinase Lck (Homo sapiens), measured pIC50 is < 5.52

---

pIC50: −log10 of the molar value.
Value Kind: pIC50

Let me check: CCc1cccc(CC)c1NC(=O)c1nn(C)c2c1CCc1cnc(Nc3ccc(C(=O)NC4CCN(C)CC4)cc3OC(F)(F)F)nc1-2 , system Glycogen synthase kinase-3 beta (Homo sapiens, UniProt P49841), measured pIC50 is < 5.00

---

# Assayed System: CREB-binding protein (Homo sapiens, UniProt Q92793)
# Method Description: Selectivity interaction (BROMOscan) EUB0001074a CREBBP
pIC50: −log10 of the molar value.
Value Kind: pIC50

// recorded pIC50 for CCc1cc2cc(NS(=O)(=O)c3ccc(C#N)cc3)ccc2n(CC)c1=O : < 4.00

---

# Method Description: Selectivity interaction (Kinase panel (cellular selectivity, Bright-Glo proliferation assay in BaF3 Cell line, Promega)) EUB0000678a FLT1
Value Kind: pIC50
Lab note — pIC50 values are minus log10 of concentrations in M.

// recorded pIC50 for CCN1CCN(c2ccc(Nc3cc(N(C)C(=O)Nc4c(Cl)c(OC)cc(OC)c4Cl)ncn3)cc2)CC1 : 5.82

---

# Assayed System: Homeodomain-interacting protein kinase 2 (Homo sapiens)
# Sequence (Q9H2X6 whole entry): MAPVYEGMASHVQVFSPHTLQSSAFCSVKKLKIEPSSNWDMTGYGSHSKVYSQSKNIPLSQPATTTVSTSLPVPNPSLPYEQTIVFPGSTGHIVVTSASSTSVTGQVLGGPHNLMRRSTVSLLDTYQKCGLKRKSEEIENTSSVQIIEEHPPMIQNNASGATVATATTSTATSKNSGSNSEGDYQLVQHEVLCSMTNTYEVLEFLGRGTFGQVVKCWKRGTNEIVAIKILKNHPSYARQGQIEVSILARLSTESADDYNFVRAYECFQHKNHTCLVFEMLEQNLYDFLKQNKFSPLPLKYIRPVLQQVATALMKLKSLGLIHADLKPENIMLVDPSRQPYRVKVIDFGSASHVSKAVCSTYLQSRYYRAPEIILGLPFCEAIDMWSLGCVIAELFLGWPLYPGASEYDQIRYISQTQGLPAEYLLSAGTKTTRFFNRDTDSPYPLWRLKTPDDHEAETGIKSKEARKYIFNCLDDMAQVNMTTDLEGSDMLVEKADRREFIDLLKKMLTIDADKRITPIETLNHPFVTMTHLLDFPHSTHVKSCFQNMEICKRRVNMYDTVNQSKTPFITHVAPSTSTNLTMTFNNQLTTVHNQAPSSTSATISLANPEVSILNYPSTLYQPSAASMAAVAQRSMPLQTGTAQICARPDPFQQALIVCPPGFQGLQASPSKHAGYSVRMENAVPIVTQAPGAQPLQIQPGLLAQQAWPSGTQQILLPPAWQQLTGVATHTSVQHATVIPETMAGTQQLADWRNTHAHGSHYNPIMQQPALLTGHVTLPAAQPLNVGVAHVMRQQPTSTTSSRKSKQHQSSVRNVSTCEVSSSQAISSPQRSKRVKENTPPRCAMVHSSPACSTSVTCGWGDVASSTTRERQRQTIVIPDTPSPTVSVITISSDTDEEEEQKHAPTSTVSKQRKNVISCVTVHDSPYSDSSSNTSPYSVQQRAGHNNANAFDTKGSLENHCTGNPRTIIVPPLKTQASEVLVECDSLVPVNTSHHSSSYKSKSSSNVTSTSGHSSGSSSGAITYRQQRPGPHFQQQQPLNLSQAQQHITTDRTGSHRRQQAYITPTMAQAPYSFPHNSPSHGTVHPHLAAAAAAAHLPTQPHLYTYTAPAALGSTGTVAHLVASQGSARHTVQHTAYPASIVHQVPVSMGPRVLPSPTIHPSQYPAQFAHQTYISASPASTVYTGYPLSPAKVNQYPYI
# Method Description: Selectivity interaction (Enzymatic assay (Eurofins)) EUB0001049a HIPK2
pIC50: −log10 of the molar value.
Value Kind: pIC50

Let me check: COc1cc(Nc2nc(C)cc(-c3cnn4nc(OC)ccc34)n2)cc(C(F)(F)F)c1 , system Homeodomain-interacting protein kinase 2 (Homo sapiens), measured pIC50 is < 5.00

---

# Assayed System: Cyclin-dependent kinase 12 (Homo sapiens, UniProt Q9NYV4)
# Method Description: Selectivity interaction (Radioactive kinase activity assay) EUB0001635a CDK12
Value Kind: IC50

// recorded IC50 for C=CC(=O)Nc1ccc(C(=O)Nc2n[nH]c3c2CN(C(=O)N[C@H](CN(C)C)c2ccccc2)C3(C)C)cc1 : > 10 µM

---

# Assayed System: Serine/threonine-protein kinase mTOR (Homo sapiens, UniProt P42345)
# Method Description: Selectivity interaction (Kinase panel (KinaseGlo Luminescent Kinase Assay, Promega)) EUB0000678a MTOR
pIC50: −log10 of the molar value.
Value Kind: pIC50

// recorded pIC50 for CCN1CCN(c2ccc(Nc3cc(N(C)C(=O)Nc4c(Cl)c(OC)cc(OC)c4Cl)ncn3)cc2)CC1 [INFIGRATINIB] : < 5.05

---

# Assayed System: Homeodomain-interacting protein kinase 1 (Homo sapiens, UniProt Q86Z02)
# Sequence (Q86Z02 whole entry): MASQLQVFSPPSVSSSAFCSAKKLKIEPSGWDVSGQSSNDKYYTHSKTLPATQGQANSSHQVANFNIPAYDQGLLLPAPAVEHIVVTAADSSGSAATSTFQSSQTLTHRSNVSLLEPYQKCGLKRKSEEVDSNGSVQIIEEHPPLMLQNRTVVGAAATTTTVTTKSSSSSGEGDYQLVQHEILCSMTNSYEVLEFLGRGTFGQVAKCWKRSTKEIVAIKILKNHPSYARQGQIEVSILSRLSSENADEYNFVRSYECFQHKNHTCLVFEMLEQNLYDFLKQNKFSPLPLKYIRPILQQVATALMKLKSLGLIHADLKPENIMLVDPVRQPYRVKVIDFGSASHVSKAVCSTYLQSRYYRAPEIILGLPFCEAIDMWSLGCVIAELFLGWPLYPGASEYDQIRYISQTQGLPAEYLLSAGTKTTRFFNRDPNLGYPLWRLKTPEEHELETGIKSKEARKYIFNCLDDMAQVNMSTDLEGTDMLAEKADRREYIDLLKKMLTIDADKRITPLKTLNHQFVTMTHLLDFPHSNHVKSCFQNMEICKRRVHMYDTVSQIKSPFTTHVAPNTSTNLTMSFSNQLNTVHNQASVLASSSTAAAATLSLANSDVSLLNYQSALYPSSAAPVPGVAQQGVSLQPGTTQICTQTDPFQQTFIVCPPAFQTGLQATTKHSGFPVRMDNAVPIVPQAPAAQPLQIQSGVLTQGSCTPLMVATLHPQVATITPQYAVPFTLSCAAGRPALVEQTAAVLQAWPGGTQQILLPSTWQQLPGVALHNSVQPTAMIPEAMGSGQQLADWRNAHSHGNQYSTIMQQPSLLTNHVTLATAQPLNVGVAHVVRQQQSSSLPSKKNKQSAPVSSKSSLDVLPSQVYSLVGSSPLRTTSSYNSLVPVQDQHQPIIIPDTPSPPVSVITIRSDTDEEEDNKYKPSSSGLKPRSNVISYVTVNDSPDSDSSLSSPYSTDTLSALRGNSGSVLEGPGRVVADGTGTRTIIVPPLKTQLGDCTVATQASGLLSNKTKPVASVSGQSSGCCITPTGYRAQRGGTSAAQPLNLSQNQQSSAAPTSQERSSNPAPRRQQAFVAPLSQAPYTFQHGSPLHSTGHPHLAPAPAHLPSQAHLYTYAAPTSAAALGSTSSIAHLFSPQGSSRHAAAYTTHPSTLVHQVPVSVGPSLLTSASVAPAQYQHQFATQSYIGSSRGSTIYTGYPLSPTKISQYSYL
# Method Description: Selectivity interaction (Enzymatic assay (Eurofins)) EUB0001049a HIPK1
pIC50: −log10 of the molar value.
Value Kind: pIC50

Let me check: COc1cc(Nc2nc(C)cc(-c3cnn4nc(OC)ccc34)n2)cc(C(F)(F)F)c1 , system Homeodomain-interacting protein kinase 1 (Homo sapiens, UniProt Q86Z02), measured pIC50 is < 5.00
